// provenance: patent US20170306005A1

Listed next: entries and their corresponding koff.
# tgt: T1, human tenascin-R rCd4-His-FBG (rat; human, UniProt P05540 207-392, limits assumed)
# T1 construct: domain: domains 3 and 4; C-terminal FBG fusion; also called Hu TNR; human TNR rCd4-His-FBG; not shown: 6His tag
# T1 sequence (chain (part 1 of 2)): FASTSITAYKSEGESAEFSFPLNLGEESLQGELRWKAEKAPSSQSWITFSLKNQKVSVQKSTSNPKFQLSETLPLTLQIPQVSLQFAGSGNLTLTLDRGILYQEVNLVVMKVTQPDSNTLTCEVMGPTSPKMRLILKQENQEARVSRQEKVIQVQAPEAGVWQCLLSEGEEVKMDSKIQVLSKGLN
# T1 sequence (chain (part 2 of 2)): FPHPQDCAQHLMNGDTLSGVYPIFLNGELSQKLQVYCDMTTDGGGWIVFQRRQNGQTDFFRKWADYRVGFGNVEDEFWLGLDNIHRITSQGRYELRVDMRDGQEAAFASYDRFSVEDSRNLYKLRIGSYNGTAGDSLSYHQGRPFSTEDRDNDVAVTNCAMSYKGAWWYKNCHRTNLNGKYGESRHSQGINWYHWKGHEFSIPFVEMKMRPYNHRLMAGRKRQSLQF
# experimental.details: SPR off-rate screen, captured IgG4 supernatant, 25 C
Value expressed in s⁻¹; do not type the unit.

Known koff results, listed for orientation:
binder	unit.abbreviation	koff
162_02_C3 human IgG4 (antibody, V domains shown, human IgG4 with hinge S241P; also called Antibody 162 02 C3 (derived from 2A5)) VH: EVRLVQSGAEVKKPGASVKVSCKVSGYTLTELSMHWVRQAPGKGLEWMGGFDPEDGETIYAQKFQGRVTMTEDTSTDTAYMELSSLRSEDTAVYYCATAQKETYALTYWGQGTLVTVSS VL: DIQMTQSPASLPTSVGDRVTITCRASQYIQGFLNWYQQKPGKAPRLLIYAASTLQDGVPSRFSGSGYGTDFTLTISSLQPEDFATYYCMQHYDGPWTFGQGTKVEIKR	s⁻¹	0.635
161_01_F6 human IgG4 (antibody, V domains shown, human IgG4 with hinge S241P; also called 160_01_F6; Antibody 161 01 F6, also known as 160 01 F6 (derived from 2A5)) VH: EVRLVQSGAEVKKPGASVKVSCKVSGYTLTELSMHWVRQAPGKGLEWMGGFDPEDGETIYAQKFQGRVTMTEDTSTDTAYMELSSLRSEDTAVYYCATAQKENIANRHWGQGTLVTVSS VL: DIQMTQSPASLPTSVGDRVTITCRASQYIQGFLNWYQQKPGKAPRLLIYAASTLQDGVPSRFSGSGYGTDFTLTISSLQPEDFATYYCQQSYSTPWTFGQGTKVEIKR	s⁻¹	0.0025
160_01_A4 human IgG4 (antibody, V domains shown, human IgG4 with hinge S241P; also called Antibody 160 01 A4 (derived from 2A5)) VH: EVRLVQSGAEVKKPGASVKVSCKVSGYTLTELSMHWVRQAPGKGLEWMGGFDPEDGETIYAQKFQGRVTMTEDTSTDTAYMELSSLRSEDTAVYYCATAQKETLGNAIWGQGTLVTVSS VL: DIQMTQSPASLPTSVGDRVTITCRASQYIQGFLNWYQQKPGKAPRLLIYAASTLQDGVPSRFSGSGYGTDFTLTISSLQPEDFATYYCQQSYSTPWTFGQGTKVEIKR	s⁻¹	0.011
161_01_A12 human IgG4 (antibody, V domains shown, human IgG4 with hinge S241P; also called Antibody 161 01 A12 (derived from 2A5)) VH: EVRLVQSGAEVKKPGASVKVSCKVSGYTLTELSMHWVRQAPGKGLEWMGGFDPEDGETIYAQKFQGRVTMTEDTSTDTAYMELSSLRSEDTAVYYCATAQPTALANTYWGQGTLVTVSS VL: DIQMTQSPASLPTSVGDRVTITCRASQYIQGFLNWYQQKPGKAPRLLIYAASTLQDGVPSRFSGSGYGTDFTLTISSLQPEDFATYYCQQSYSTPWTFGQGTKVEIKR	s⁻¹	0.0042

# input for lookup
Exercise: Fill in: koff of 162_02_C6 human IgG4 (antibody, V domains shown, human IgG4 with hinge S241P; also called Antibody 162 02 C6 (derived from 2A5)) VH: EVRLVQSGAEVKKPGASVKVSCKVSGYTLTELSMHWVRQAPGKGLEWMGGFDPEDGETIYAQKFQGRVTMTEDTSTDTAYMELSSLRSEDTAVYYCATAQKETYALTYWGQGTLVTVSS VL: DIQMTQSPASLPTSVGDRVTITCRASQYIQGFLNWYQQKPGKAPRLLIYAASTLQDGVPSRFSGSGYGTDFTLTISSLQPEDFATYYCQNQYAGPWTFGQGTKVEIKR is ___
Solution: 0.028
